test system: C. gattii clinical isolates; experiment: Susceptibility to clinically available antifungals, CLSI M27-A3 microdilution; type: cell-based; settings: Cryptococcus gattii, 24 h, C. gattii isolate 25; 37 °C
Measured MIC accompanies every entry in the list below.

smiles.repr | study.target | units.symbol | value.prefix | MIC
CC[C@H](C)C[C@H](C)CCCCCCCCC(=O)N[C@H]1C[C@@H](O)[C@@H](NCCN)NC(=O)[C@@H]2[C@@H](O)CCN2C(=O)[C@H]([C@H](O)CCN)NC(=O)[C@H]([C@H](O)[C@@H](O)c2ccc(O)cc2)NC(=O)[C@@H]2C[C@@H](O)CN2C(=O)[C@H]([C@@H](C)O)NC1=O | C. gattii clinical isolates | µg/mL | > | 8
C[C@@H]1[C@H](O)[C@@H](C)/C=C/C=C/C=C/C=C/C=C/C=C/C=C/[C@H](O[C@@H]2O[C@H](C)[C@@H](O)[C@H](N)[C@@H]2O)C[C@@H]2O[C@](O)(C[C@@H](O)C[C@@H](O)[C@H](O)CC[C@@H](O)C[C@@H](O)CC(=O)O[C@H]1C)C[C@H](O)[C@H]2C(=O)O | C. gattii clinical isolates | µg/mL | = | 0.03
C[C@@H](c1ncncc1F)[C@](O)(Cn1cncn1)c1ccc(F)cc1F | C. gattii clinical isolates | µg/mL | = | 2
Nc1[nH]c(=O)ncc1F | C. gattii clinical isolates | µg/mL | = | 4
OC(Cn1cncn1)(Cn1cncn1)c1ccc(F)cc1F | C. gattii clinical isolates | µg/mL | = | 16

* * *

Consider the following compounds and their measured MIC readings.
Tested on: C. gattii clinical isolates
Experiment: MIC/MFC of test compounds, microdilution
Type: cell-based, Cryptococcus gattii
Settings: C. gattii isolate 25; read-out: MIC
Procedure: Six clinical isolates belonging to the Cryptococcus genus were obtained from patients who attended the Instituto Nacional de Infectologia Evandro Chagas (INI), Fundação Oswaldo Cruz (FIOCRUZ), and were kindly provided by Dr. Rodrigo Almeida-Paes (INI-FIOCRUZ). […] Yeast cell counts were determined using a Neubauer chamber. Following MIC determination, the MFC was assessed by inoculating 10 µL from wells showing no visible fungal growth onto Sabouraud dextrose agar. […]

compound | study.target | units.symbol | MIC
[Ag+].[O-][Cl+3]([O-])([O-])[O-] [AgClO4, silver perchlorate] | C. gattii clinical isolates | µM | 1.56
O=C1C(=O)c2cccnc2-c2ncccc21.O=C1C(=O)c2cccnc2-c2ncccc21.[Ag+].[O-][Cl+3]([O-])([O-])[O-] [Ag-phendione, [Ag(phendione)2]ClO4] | C. gattii clinical isolates | µM | 1.56
O=C1C(=O)c2cccnc2-c2ncccc21 | C. gattii clinical isolates | µM | 12.5
O.O.O.O.O=C1C(=O)c2cccnc2-c2ncccc21.O=C1C(=O)c2cccnc2-c2ncccc21.O=C1C(=O)c2cccnc2-c2ncccc21.[Cu+2].[O-][Cl+3]([O-])([O-])[O-].[O-][Cl+3]([O-])([O-])[O-] [Cu-phendione, [Cu(phendione)3](ClO4)2·4H2O] | C. gattii clinical isolates | µM | 6.25

* * *

Entries annotated with measured MIC
Tested on: C. gattii clinical isolates
Assay: Susceptibility to clinically available antifungals, CLSI M27-A3 microdilution
Assay type: cell-based
Conditions: Cryptococcus gattii, C. gattii isolate 25; value in brackets
Method: Six clinical isolates belonging to the Cryptococcus genus were obtained from patients who attended the Instituto Nacional de Infectologia Evandro Chagas (INI), Fundação Oswaldo Cruz (FIOCRUZ), and were kindly provided by Dr. Rodrigo Almeida-Paes (INI-FIOCRUZ). To comply with ethical standards and institutional agreements between UFRJ and FIOCRUZ, patient data were not disclosed. […] Yeast cell counts were determined using a Neubauer chamber. […]

smiles.repr | study.target | MIC
C[C@@H]1[C@H](O)[C@@H](C)/C=C/C=C/C=C/C=C/C=C/C=C/C=C/[C@H](O[C@@H]2O[C@H](C)[C@@H](O)[C@H](N)[C@@H]2O)C[C@@H]2O[C@](O)(C[C@@H](O)C[C@@H](O)[C@H](O)CC[C@@H](O)C[C@@H](O)CC(=O)O[C@H]1C)C[C@H](O)[C@H]2C(=O)O | C. gattii clinical isolates | 0.03 µM
OC(Cn1cncn1)(Cn1cncn1)c1ccc(F)cc1F | C. gattii clinical isolates | 52.2 µM
C[C@@H](c1ncncc1F)[C@](O)(Cn1cncn1)c1ccc(F)cc1F | C. gattii clinical isolates | 5.72 µM
Nc1[nH]c(=O)ncc1F | C. gattii clinical isolates | 30 µM
CC[C@H](C)C[C@H](C)CCCCCCCCC(=O)N[C@H]1C[C@@H](O)[C@@H](NCCN)NC(=O)[C@@H]2[C@@H](O)CCN2C(=O)[C@H]([C@H](O)CCN)NC(=O)[C@H]([C@H](O)[C@@H](O)c2ccc(O)cc2)NC(=O)[C@@H]2C[C@@H](O)CN2C(=O)[C@H]([C@@H](C)O)NC1=O | C. gattii clinical isolates | > 7.3 µM
